Entries and their normalized RNA/DNA level without ligand (log10)
B1: library; a variant is named by its letters at N, in order (parent)
chain: GCUGUCACCGGUGCUUGGUACGUUAUAUUCAGCCGGUCUGAUGAGUCUNNNNNNAGACGAAACAGC

# Variants of: B1
# Assay protocol: normalized RNA/DNA level without ligand (relative to sTRSVctl = 100) (log10 (% of sTRSVctl)); HEK293T overexpressing SLC46A1; higher = less ribozyme self-cleavage, higher mRNA level
# Cond: without (6R,S)-folinic acid; ligand present: no
Please reply with the value in numeric form only.

Consider the worked cases shown below.
Residue change	Data value
AGUUCG	1.95
AGGCAG	1.97
GUUACA	2.01
CAAUGG	1.94

Looking up `AAAGAU` , I see its normalized RNA/DNA level without ligand (log10) listed as 1.93

Looking up `AAUACG` , I see its normalized RNA/DNA level without ligand (log10) listed as 1.93

Looking up `GGCGUU` , I see its normalized RNA/DNA level without ligand (log10) listed as 2.08

Looking up `AAACAC` , I see its normalized RNA/DNA level without ligand (log10) listed as 2

Looking up `CACCUU` , I see its normalized RNA/DNA level without ligand (log10) listed as 2.03
